# key: entry, value: Anti-cancer activity (% relative to wild-type peptide)
Tested on: U937
Test: cells
Assay type: cell-based, human
Settings: U937; wild-type peptide = 100%
Your answer is read as %, so omit the unit and give the number.

The examples below pair each entry with its known result.
1) RQIKIWFQNRRMKWKKKGYGRIGNYYYK (Antp-TPR A2G,A4G,S9Y,F11Y peptide) [Antp-A2G, A4G, S9Y, F11Y]: 102.73
2) RQIKIWFQNRRMKWKKKAYAAIGNSYFK (Antp-TPR R5A peptide) [Antp-R5A]: 77.85
3) RQIKIWFQNRRMKWKKRKFSAAIGYNKY (Antp-scramble peptide) [reference compound]: 6.13

QUERY: For the sequence RQIKIWFQNRRMKWKKKAYARAGNSYFK (Antp-TPR I6A peptide) [Antp-I6A] , what Anti-cancer activity (% relative to wild-type peptide) is on record?
RESULT: 120.54

====

# key: entry, value: IC50
System: K562
Experiment: cells
Assay type: cell-based, human
Details: Human AML cells K562; averages of two independent experiments; read-out: Anti-tumor activity, IC50
The reply should consist of the numeric value with the unit placed after it.

1. C=CCNC1=C2C[C@@H](C)C[C@H](OC)[C@H](O)[C@@H](C)/C=C(\C)[C@H](OC(N)=O)[C@@H](OC)/C=C\C=C(/C)C(=O)NC(=CC1=O)C2=O [Peptide 17-AAG, 17-allylaminogeldanamycin]: 700 nM

QUERY: For the compound COC1=C2C[C@@H](C)C[C@H](OC)[C@H](O)[C@@H](C)/C=C(\C)[C@H](OC(N)=O)[C@@H](OC)/C=C\C=C(/C)C(=O)NC(=CC1=O)C2=O [Geldanamycin, geldanamycin] , what IC50 is on record?
RESULT: 750 nM

// provenance: patent US8546320B2
